Read-out: Apoptosis regulator Bcl-2 (Homo sapiens) (UniProt P10415)
Sequence (P10415 whole entry, looked up): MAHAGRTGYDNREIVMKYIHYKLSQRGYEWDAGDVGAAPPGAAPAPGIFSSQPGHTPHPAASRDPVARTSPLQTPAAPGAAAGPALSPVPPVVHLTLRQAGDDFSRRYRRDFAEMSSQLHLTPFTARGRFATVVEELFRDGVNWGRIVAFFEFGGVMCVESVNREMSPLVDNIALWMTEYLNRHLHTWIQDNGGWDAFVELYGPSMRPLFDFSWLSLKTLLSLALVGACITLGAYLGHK
Experiment: LTEA_HepaRG_BCL2: Life Technologies and Expression Analysis (LTEA) Assay for Bcl-2 gene using HepaRG (AID 2283475);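 note: BCL2 transcript by TaqMan qRT-PCR normalised to ACTB GAPDH and POLR2A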
Settings: mRNA level, 48 h; actives raise or lower the signal
Calls of active or inactive are those of the source. Rule for the calls: active = hit-call score of the fitted dose curve at least 0.9, where 1 is the maximum; inactive = score below 0.9.
reportedProperty: outcome

Examples from the recorded data:
O=C(N[C@@H](c1ccccc1)[C@@H]1CCCCN1)c1cccc(C(F)(F)F)c1Cl; inactive
CC(COCC(C)OC(=O)c1ccccc1)OC(=O)c1ccccc1 (stereo unspecified); inactive
O=C1NC(=O)C(c2ccccc2)(c2ccccc2)N1; inactive
CC(=O)OC1CC(C)OC(C)O1 (stereo unspecified); inactive
Cc1c(C)c2c(c(C)c1O)CCC(C)(COc1ccc(CC3SC(=O)NC3=O)cc1)O2 (stereo unspecified); inactive

--- query ---
Incoming: Recorded outcome of C=CCCCCCCCCCCCC , please.
Outgoing: inactive

###

Molecular target: Adra2b (gene 24174)
Assay: NVS_GPCR_rmAdra2B: NovaScreen (NVS) G Protein-Coupled Receptor Assay for hybird cells Adrenergic, Alpha 2B Receptor (Adra2B) (AID 2283306)
Results filed as inconclusive are left out. Active and inactive are the calls of the source. Rule for the calls: active = hit-call score of the fitted dose curve at least 0.9, where 1 is the maximum; inconclusive = response in the unintended direction; inactive = score below 0.9.
Answer with one of the outcomes given here: y for active, n for inactive

Some entries whose results are on file:
CSc1ccc(Oc2ccc(S(N)(=O)=O)cc2CN(C)C)cc1C; y
CCN(CC)CCOc1ccc(C(=C(Cl)c2ccccc2)c2ccccc2)cc1; y
CCc1nc(N)nc(N)c1-c1ccc(Cl)cc1; y

Next, consider the following compound.
Incoming: Assay outcome for Cc1cc(SC2=C(O)C[C@@](CCc3ccc(N)cc3)(C(C)C)OC2=O)c(C(C)(C)C)cc1CO : what was it?
Outgoing: n

###

Test: Tanguay_ZF_120hpf_SWIM_legacy: (Legacy) Oregon State University Tanguay Lab 120 Hour Post-fertilization zebrafish Assay for Swim Bladder Malformation (AID 2283654);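 note: swim bladder malformation in each larva scored yes or no under brightfield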
Records with an inconclusive call do not appear. Activity calls are given as the source filed them. How the source made its calls: active means hit-call score of the fitted dose curve at least 0.9, where 1 is the maximum; inconclusive means response in the unintended direction; inactive means score below 0.9.
Answer with one of the outcomes given here: True for active, False for inactive

Some entries whose results are on file:
CN(C)C(=O)NC1(c2ccccc2)CCN(CCC[C@]2(c3ccc(Cl)c(Cl)c3)CCCN(C(=O)c3ccccc3)C2)CC1; False
NC(=Nc1ccccc1)Nc1ccccc1; False
Cn1cnc2c1c(=O)[nH]c(=O)n2C; False
NCCOCCOCCN; False
CC(=O)O; False
CC(C)NCC(O)c1ccc(O)c(O)c1 (stereo not drawn); False
CCCC[C@H]1CN(CC2CCOCC2)C(=O)OC12CCN(C1(C)CCN(C(=O)c3c(C)ncnc3C)CC1)CC2; False
C/C=C/c1ccc(OC)cc1; False

Incoming: Assay outcome for O=C(O)CN(CC(=O)O)CC(=O)O : what was it?
Outgoing: False

Incoming: Another compound: Nc1nc(Cl)nc2c1ncn2[C@H]1C[C@H](O)[C@@H](CO)O1
Outgoing: False

Incoming: Another compound: CN(C)CCCN(C)CCCN(C)C
Outgoing: False

Incoming: Another compound: Cc1cn([C@H]2C=C[C@@H](CO)O2)c(=O)[nH]c1=O
Outgoing: False

Incoming: Another compound: O=C(NS(=O)(=O)/C=C/c1cccs1)c1ccc(F)cc1Br
Outgoing: False

Incoming: Another compound: Cc1ccc(C(C)(C)C)c(O)c1
Outgoing: False

Incoming: Another compound: CC(C)COC(=O)CCCCC(=O)OCC(C)C
Outgoing: False

Incoming: Another compound: CC(=O)S[C@H](C(=O)N[C@H]1Cc2ccccc2[C@H]2CCC[C@@H](C(=O)O)N2C1=O)C(C)C
Outgoing: False

Incoming: Another compound: CO[C@@H]1COCC[C@@H]1N[C@@H]1CC[C@@](C(=O)N2CCc3ncc(C(F)(F)F)cc3C2)(C(C)C)C1
Outgoing: False

Incoming: Another compound: CC(=O)OCC(COC(C)=O)OC(C)=O
Outgoing: False

Incoming: Another compound: CCc1cc(C2=C(C(=O)O)N(c3ccccc3C(F)(F)F)S(=O)(=O)c3ccccc32)cc2c1OCO2
Outgoing: False

Incoming: Another compound: C/C=C/C=C/C(=O)O
Outgoing: False

Incoming: Another compound: CCCCCCCCCC[N+](C)(C)[O-]
Outgoing: False

Incoming: Another compound: C=CCc1ccc(OC)c(OC)c1
Outgoing: False

Incoming: Another compound: O=C1OC(c2ccc(O)cc2)(c2ccc(O)cc2)c2ccccc21
Outgoing: False

Incoming: Another compound: Cc1ccc(-c2cc(C(F)(F)F)nn2-c2ccc(S(N)(=O)=O)cc2)cc1
Outgoing: False

Incoming: Another compound: CCCCCCCCCCCCCCOS(=O)(=O)O
Outgoing: False

###

Read-out: Pselectin, SELP (gene 6403)
Test: BSK_4H_Pselectin: BioMAP Diversity Plus: 4H Assay for Pselectin Biomarker Activity (AID 2283026)
Conditions: primary human endothelial cells (HUVEC); actives raise or lower the signal
Calls of active or inactive are those of the source. The calls were made as follows: active = hit-call score of the fitted dose curve at least 0.9, where 1 is the maximum; inactive = score below 0.9.
reportedProperty: outcome

CCCCCCCCCC[N+](C)(C)[O-]; inactive
O=C1NC(=O)C(c2ccccc2)(c2ccccc2)N1; inactive
CCc1cc(C2=C(C(=O)O)N(c3ccccc3C(F)(F)F)S(=O)(=O)c3ccccc32)cc2c1OCO2; inactive
C=CCCCCCCCCCCCC; inactive

--- query ---
Incoming: Recorded outcome of O=Cc1ccccc1C=O , please.
Outgoing: inactive

###

Read-out: Fatty acid synthase (Homo sapiens) (UniProt P49327)
Sequence (P49327 whole entry, looked up): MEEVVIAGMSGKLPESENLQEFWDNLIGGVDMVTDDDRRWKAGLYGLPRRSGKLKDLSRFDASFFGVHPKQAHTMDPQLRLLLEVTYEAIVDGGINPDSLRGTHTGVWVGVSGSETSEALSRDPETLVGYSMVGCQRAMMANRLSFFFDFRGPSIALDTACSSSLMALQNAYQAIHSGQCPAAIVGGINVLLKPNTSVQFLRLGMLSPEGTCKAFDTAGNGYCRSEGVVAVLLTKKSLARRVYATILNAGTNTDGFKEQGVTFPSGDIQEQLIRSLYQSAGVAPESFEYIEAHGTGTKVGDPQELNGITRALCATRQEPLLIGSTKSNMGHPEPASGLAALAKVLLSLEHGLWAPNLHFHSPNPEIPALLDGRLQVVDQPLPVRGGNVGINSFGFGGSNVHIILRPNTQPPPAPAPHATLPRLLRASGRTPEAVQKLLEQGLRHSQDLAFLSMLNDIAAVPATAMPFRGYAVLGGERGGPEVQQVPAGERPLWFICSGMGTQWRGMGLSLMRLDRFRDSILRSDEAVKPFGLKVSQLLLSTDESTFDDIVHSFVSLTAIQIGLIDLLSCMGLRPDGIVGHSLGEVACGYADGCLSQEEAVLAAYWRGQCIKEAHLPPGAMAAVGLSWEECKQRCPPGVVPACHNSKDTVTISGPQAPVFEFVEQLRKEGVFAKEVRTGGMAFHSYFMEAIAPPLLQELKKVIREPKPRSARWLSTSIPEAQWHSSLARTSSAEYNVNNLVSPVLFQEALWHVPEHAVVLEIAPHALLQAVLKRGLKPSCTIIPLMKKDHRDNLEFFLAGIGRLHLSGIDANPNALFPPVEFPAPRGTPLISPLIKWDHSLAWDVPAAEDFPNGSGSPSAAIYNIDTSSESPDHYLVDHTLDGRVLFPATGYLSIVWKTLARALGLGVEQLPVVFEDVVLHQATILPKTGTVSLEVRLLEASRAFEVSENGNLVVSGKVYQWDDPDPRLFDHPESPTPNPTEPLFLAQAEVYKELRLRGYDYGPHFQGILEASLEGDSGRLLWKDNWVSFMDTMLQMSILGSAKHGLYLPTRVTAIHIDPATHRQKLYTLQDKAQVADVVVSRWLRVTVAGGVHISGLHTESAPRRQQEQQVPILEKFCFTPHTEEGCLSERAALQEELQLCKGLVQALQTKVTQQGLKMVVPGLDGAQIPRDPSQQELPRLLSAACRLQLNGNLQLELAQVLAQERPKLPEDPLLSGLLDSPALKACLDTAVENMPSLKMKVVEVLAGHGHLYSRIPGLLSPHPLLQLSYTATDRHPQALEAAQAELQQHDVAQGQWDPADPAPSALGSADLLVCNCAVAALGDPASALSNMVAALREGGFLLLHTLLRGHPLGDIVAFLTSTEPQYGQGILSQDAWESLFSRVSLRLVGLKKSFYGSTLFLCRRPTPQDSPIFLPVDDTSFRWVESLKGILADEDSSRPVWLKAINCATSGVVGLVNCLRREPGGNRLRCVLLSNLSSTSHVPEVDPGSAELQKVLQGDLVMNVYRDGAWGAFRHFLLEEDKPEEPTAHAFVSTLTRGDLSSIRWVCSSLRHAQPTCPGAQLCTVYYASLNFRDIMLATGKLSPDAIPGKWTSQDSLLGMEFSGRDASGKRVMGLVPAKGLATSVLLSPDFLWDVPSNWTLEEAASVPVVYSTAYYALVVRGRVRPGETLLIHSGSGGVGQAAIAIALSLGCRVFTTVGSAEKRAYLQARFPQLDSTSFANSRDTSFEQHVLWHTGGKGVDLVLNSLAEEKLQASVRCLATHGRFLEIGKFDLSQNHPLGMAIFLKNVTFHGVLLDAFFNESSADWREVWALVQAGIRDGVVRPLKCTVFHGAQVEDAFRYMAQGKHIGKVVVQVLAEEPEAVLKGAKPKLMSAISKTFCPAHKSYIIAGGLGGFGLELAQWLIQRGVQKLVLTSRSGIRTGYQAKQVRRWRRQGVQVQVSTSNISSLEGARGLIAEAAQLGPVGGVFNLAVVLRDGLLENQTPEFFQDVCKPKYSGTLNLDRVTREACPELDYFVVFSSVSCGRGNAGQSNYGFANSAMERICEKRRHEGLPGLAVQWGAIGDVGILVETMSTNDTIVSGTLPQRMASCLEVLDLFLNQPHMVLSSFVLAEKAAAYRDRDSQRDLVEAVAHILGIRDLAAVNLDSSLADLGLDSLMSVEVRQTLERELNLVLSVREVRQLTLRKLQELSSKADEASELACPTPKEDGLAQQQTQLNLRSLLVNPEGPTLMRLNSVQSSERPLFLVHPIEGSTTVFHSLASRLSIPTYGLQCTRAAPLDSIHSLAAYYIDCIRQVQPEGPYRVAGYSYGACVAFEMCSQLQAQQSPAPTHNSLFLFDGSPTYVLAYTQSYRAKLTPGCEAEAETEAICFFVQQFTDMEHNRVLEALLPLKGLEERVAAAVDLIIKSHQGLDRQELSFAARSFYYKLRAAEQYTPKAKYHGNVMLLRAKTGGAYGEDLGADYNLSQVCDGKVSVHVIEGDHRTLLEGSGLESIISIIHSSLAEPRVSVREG
Assay: LTEA_HepaRG_FASN: Life Technologies and Expression Analysis (LTEA) Assay for Fatty Acid Synthase (FASN) using HepaRG (AID 2283448);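 for AC50: differentiated human HepaRG liver cells in serum-free induction medium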
Settings: mRNA level, 48 h; actives raise or lower the signal
The source made the active and inactive calls. How the source made its calls: active means hit-call score of the fitted dose curve at least 0.9, where 1 is the maximum; inactive means score below 0.9.
reportedProperty: AC50

Examples from the recorded data:
COC(=O)CCCC(=O)OC; inactive
CCCCCCCCCCCCCCOS(=O)(=O)O; inactive
COc1ccc(C(=O)Nc2nc3ccccc3c(NCc3ccccc3)c2C#N)cc1; 10.3 µM (active)
CCOCCOCCO; inactive
CN(C)CCCN1c2ccccc2Sc2ccc(Cl)cc21; 12.5 µM (active)

I would be grateful if you could provide AC50 for each of the following entries.
1. CC(C)c1cccc(C(C)C)c1
2. OCC(CO)n1cnc(-c2ccc(F)cc2)c1-c1ccnc(Oc2ccccc2)n1
3. CCc1nc(N)nc(N)c1-c1ccc(Cl)cc1
4. CCN(CC)CCOc1ccc(C(=C(Cl)c2ccccc2)c2ccccc2)cc1
5. CCCCCCCC(=O)OC
6. CC(C)COC(=O)CCCCC(=O)OCC(C)C

Outgoing:
inactive
inactive
inactive
inactive
inactive
inactive

I would be grateful if you could provide AC50 for each of the following entries.
1. C=CCCCCCCCCCCCC
2. O=C1CCCCC1
3. COC(=O)CCC(=O)OC
4. CC(=O)OCC(COC(C)=O)OC(C)=O
5. O=C(O)CN(CC(=O)O)CC(=O)O
6. O=C1c2c(O)cccc2Cc2cccc(O)c21

Outgoing:
["inactive", "inactive", "inactive", "inactive", "inactive", "inactive"]

I would be grateful if you could provide AC50 for each of the following entries.
1. O=C(O)CC(O)(CC(=O)O)C(=O)O
2. CCCCCCC(C=O)=Cc1ccccc1
3. COC(=O)[C@H]1[C@H]2C[C@@H]3c4[nH]c5cc(OC)ccc5c4CCN3C[C@H]2C[C@@H](OC(=O)c2cc(OC)c(OC)c(OC)c2)[C@@H]1OC
4. C#CC(O)C(CC)CCCC (stereo not drawn)
5. CCCC(=O)O

Outgoing:
["inactive", "inactive", "28.1 µM (active)", "inactive", "inactive"]

I would be grateful if you could provide AC50 for each of the following entries.
1. NC=O
2. CC1=C(C)S(=O)(=O)CCS1(=O)=O
3. CC(=O)S[C@H](C(=O)N[C@H]1Cc2ccccc2[C@H]2CCC[C@@H](C(=O)O)N2C1=O)C(C)C
4. Cc1c(C)c2c(c(C)c1O)CCC(C)(COc1ccc(CC3SC(=O)NC3=O)cc1)O2 (stereo not drawn)

Outgoing:
inactive
81.6 µM (active)
inactive
inactive

###

Read-out: Alpha-fetoprotein (AFP) gene, AFP (gene 174)
Assay: LTEA_HepaRG_AFP: Life Technologies and Expression Analysis (LTEA) Assay for Alpha-fetoprotein (AFP) gene using HepaRG (AID 2283472)
Conditions: mRNA level, 48 h; actives raise or lower the signal
Activity calls are given as the source filed them. Rule for the calls: active = hit-call score of the fitted dose curve at least 0.9, where 1 is the maximum; inactive = score below 0.9.
Answer with one of the outcomes given here: label 1 (active), label 0 (inactive)

Some entries whose results are on file:
O=C1c2c(O)cccc2Cc2cccc(O)c21; label 0
CCCCOC(=O)CCCCC(=O)OCCCC; label 0
OCC(CO)n1cnc(-c2ccc(F)cc2)c1-c1ccnc(Oc2ccccc2)n1; label 1
CCCCCCCCCCCCCCCCO; label 0

Incoming: Assay outcome for Cc1ccc(-c2cc(C(F)(F)F)nn2-c2ccc(S(N)(=O)=O)cc2)cc1 : what was it?
Outgoing: label 0

Incoming: Another molecule: O=C(N[C@@H](c1ccccc1)[C@@H]1CCCCN1)c1cccc(C(F)(F)F)c1Cl
Outgoing: label 1

Incoming: Another molecule: O=C(O)CC(O)(CC(=O)O)C(=O)O
Outgoing: label 0
